Could you please report measured IC50 for the items listed next?
# Target of assay: FGFR4-WT (Homo sapiens (Human), UniProt P22455)
# Sequence (P22455 22-802): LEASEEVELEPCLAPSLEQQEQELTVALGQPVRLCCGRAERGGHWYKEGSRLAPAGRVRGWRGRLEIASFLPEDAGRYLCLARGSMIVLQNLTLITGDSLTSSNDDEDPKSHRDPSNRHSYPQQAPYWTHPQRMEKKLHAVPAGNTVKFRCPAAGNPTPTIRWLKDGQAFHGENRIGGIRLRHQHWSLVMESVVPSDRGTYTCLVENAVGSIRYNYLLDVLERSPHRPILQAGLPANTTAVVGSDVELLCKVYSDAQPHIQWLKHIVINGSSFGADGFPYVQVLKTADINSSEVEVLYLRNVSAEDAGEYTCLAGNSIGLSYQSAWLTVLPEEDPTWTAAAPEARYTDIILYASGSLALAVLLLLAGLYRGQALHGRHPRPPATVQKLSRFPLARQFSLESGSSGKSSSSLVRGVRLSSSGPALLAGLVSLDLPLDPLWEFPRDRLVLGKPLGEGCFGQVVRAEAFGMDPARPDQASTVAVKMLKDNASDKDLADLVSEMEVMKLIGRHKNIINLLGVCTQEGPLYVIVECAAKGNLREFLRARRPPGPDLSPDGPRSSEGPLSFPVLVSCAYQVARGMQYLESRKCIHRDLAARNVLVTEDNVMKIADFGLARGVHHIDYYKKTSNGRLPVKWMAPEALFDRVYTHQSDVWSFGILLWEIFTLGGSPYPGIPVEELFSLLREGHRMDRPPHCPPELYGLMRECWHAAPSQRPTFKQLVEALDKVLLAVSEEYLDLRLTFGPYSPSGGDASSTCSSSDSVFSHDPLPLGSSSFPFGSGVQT
# Assay comment: Omnia assay for potency assessment against FGFR4 enzyme
# Format: biochemical
# Condition label: read-out: FGFR4 IC50

Some solved entries appear below for comparison.
C=CC(=O)NC1COCC1Nc1ncc2c(n1)N(Cc1cn[nH]c1)C(=O)N(c1c(Cl)c(OC)cc(OC)c1Cl)C2 (stereo not shown): < 100 nM
C=CC(=O)N[C@H]1CCCC[C@H]1Nc1ncc2c(n1)N(Cc1cscn1)C(=O)N(c1c(Cl)c(OC)cc(OC)c1Cl)C2: < 100 nM
C=CC(=O)Nc1cccc(Nc2ncc3c(n2)N(Cc2cccc(NC(=O)CC)c2)C(=O)N(c2c(Cl)c(OC)cc(OC)c2Cl)C3)c1: < 100 nM

Below: the item to evaluate.
IC50 for C=CC(=O)N[C@@H]1CCCC[C@@H]1Nc1ncc2c(n1)N(Cc1cscn1)C(=O)N(c1c(Cl)c(OC)cc(OC)c1Cl)C2 ?
> 1000 nM

* * *

Could you please report measured GI50 for the items listed next?
# System: Huh7 cells
# Assay comment: Cell proliferation, Huh7 (CellTiter Glo)
# Type: cell-based
# Condition label: Homo sapiens, Huh-7; Huh7; 120 hr; read-out: Cell Proliferation GI50 (nM) HUH

Some solved entries appear below for comparison.
COc1cc(OC)c(Cl)c(N2Cc3cnc(Nc4ccccc4)nc3N(C)C2=O)c1Cl: < 100 nM
C=CC(=O)Nc1ccccc1Nc1ncc2c(n1)N(Cc1cccc(N)c1)C(=O)N(c1c(Cl)c(OC)cc(OC)c1Cl)C2: < 100 nM
C=CC(=O)NC1COCC1Nc1ncc2c(n1)N(CC1CC1)C(=O)N(c1c(Cl)c(OC)cc(OC)c1Cl)C2 (centres unmarked): < 100 nM
C=CC(=O)NC1CCCCC1Nc1ncc2c(n1)N(Cc1cccnc1)C(=O)N(c1c(Cl)c(OC)cc(OC)c1Cl)C2 (racemic): 501 to 999 nM
C=CC(=O)Nc1ccccc1Nc1ncc2c(n1)N(CC(F)F)C(=O)N(c1cc(OC)cc(OC)c1Cl)C2: 101 to 500 nM

I need GI50 for every entry listed below, if you could help.
1. C=CC(=O)N[C@H]1COCC[C@H]1Nc1ncc2c(n1)N(C)C(=O)N(c1c(Cl)c(OC)cc(OC)c1Cl)C2
2. C=CC(=O)Nc1ccccc1Nc1ncc2c(n1)N(C1CCCNC1)C(=O)N(c1cc(OC)cc(OC)c1)C2 (centres unmarked)

["501 to 999 nM", "101 to 500 nM"]

* * *

# Target of assay: UniProtKB P22455
# Assay comment: Omnia assay for potency assessment against FGFR4 enzyme
# Format: biochemical
# Condition label: method b: SignalChem FGFR4-WT 2.5 nM, ATP 250 uM, Y10-Sox 10 uM; read-out: FGFR4 IC50
pIC50: −log10 of the molar value.
Could you please report measured pIC50 for the items listed next?

C=CC(=O)Nc1ccc(Nc2ncc3c(n2)N(Cc2cccc(NC(=O)CC)c2)C(=O)N(c2c(Cl)c(OC)cc(OC)c2Cl)C3)cc1 [I-233]: > 7.00

Below: the item to evaluate.
pIC50 for C=CC(=O)NC1CCCCC1Nc1ncc2c(n1)N(C)C(=O)N(c1cc(OC)cc(OC)c1)C2 (racemic) [I-18] ?
< 6.00
